// provenance: patent US4464385A

- Test system: cataracts in rats
- MEASUREMENT_DESCRIPTION: Prevention or retardation of cataracts in galactose-fed rats
- Assay type: in vivo, rat
- CONDITION_DETAILS: Study Day 8; 30% galactose diet; A,C,E 0.0025%, B,D 0.01%
// Number of Eyes Observed, ± lookup, one value per entry
OBSERVABLE: Number of Eyes Observed, ±

> print(dat)
                                   compound                  observable  observed.result
1  CSc1ccc2c(c1)C1(CCO2)NC(=O)NC1=O (stereo not shown) [B]  Number of Eyes Observed, ±          12 eyes
2  C[S+]([O-])c1ccc2c(c1)C1(CCO2)NC(=O)NC1=O (stereo not shown)  Number of Eyes Observed, ±           6 eyes
3  O=C1NC(=O)C2(CCOc3ccc(F)cc32)N1 (stereo not shown)  Number of Eyes Observed, ±           0 eyes
4  CSc1ccc2c(c1)C1(CCO2)NC(=O)NC1=O (stereo not shown) [A]  Number of Eyes Observed, ±           6 eyes
